# study.system: T1, TNFR1 (Homo sapiens, UniProt P19438)
# T1 chain: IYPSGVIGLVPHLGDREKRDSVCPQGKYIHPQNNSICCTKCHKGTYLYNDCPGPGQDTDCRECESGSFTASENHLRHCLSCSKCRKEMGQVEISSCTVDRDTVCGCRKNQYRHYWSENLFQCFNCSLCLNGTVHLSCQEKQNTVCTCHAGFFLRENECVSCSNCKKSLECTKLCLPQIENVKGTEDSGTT
# test.description: yeast display SC50
measurement.type: apparent Kd (screen) (pM)

binder: R13Q (designed binder) MTLQELLREEALQRAEAEAFRYALELLAEKFPEQKEYLLDLAEEIESQIRSLSGVDVEDVRKFLDKEWAWVKELLAEHPAELAEVEAARAARLAELRAEVEAKVAA
apparent Kd (screen) [pM]: 142
--
binder: L12E (designed binder) MTLQELLREEAERRAEAEAFRYALELLAEKFPEQKEYLLDLAEEIESQIRSLSGVDVEDVRKFLDKEWAWVKELLAEHPAELAEVEAARAARLAELRAEVEAKVAA
apparent Kd (screen) [pM]: 1270
--
binder: L52C (designed binder) MTLQELLREEALRRAEAEAFRYALELLAEKFPEQKEYLLDLAEEIESQIRSCSGVDVEDVRKFLDKEWAWVKELLAEHPAELAEVEAARAARLAELRAEVEAKVAA
apparent Kd (screen) [pM]: 2480
--
binder: L26G (designed binder) MTLQELLREEALRRAEAEAFRYALEGLAEKFPEQKEYLLDLAEEIESQIRSLSGVDVEDVRKFLDKEWAWVKELLAEHPAELAEVEAARAARLAELRAEVEAKVAA
apparent Kd (screen) [pM]: 446

A. E5L (designed binder) MTLQLLLREEALRRAEAEAFRYALELLAEKFPEQKEYLLDLAEEIESQIRSLSGVDVEDVRKFLDKEWAWVKELLAEHPAELAEVEAARAARLAELRAEVEAKVAA
B. A28W (designed binder) MTLQELLREEALRRAEAEAFRYALELLWEKFPEQKEYLLDLAEEIESQIRSLSGVDVEDVRKFLDKEWAWVKELLAEHPAELAEVEAARAARLAELRAEVEAKVAA
Q) Name the one with the greater apparent Kd (screen) value, either A or B as given. Answer by stating the label of the chosen item.
A) B

1. A106P (designed binder) MTLQELLREEALRRAEAEAFRYALELLAEKFPEQKEYLLDLAEEIESQIRSLSGVDVEDVRKFLDKEWAWVKELLAEHPAELAEVEAARAARLAELRAEVEAKVAP
2. K72A (designed binder) MTLQELLREEALRRAEAEAFRYALELLAEKFPEQKEYLLDLAEEIESQIRSLSGVDVEDVRKFLDKEWAWVAELLAEHPAELAEVEAARAARLAELRAEVEAKVAA
Q) Name the one with the greater apparent Kd (screen) value, either 1 or 2 as given. Answer by stating the label of the chosen item.
A) 2
(2: 869 pM, 1: 539 pM)

a. R89C (designed binder) MTLQELLREEALRRAEAEAFRYALELLAEKFPEQKEYLLDLAEEIESQIRSLSGVDVEDVRKFLDKEWAWVKELLAEHPAELAEVEAACAARLAELRAEVEAKVAA
b. G54D (designed binder) MTLQELLREEALRRAEAEAFRYALELLAEKFPEQKEYLLDLAEEIESQIRSLSDVDVEDVRKFLDKEWAWVKELLAEHPAELAEVEAARAARLAELRAEVEAKVAA
Q) Name the one with the greater apparent Kd (screen) value, either a or b as given. Answer by stating the label of the chosen item.
A) b
